All values here come from patent US10894784B2.

- Study target: TBK1 (Homo sapiens (Human))
- Sequence (Q9UHD2 whole entry): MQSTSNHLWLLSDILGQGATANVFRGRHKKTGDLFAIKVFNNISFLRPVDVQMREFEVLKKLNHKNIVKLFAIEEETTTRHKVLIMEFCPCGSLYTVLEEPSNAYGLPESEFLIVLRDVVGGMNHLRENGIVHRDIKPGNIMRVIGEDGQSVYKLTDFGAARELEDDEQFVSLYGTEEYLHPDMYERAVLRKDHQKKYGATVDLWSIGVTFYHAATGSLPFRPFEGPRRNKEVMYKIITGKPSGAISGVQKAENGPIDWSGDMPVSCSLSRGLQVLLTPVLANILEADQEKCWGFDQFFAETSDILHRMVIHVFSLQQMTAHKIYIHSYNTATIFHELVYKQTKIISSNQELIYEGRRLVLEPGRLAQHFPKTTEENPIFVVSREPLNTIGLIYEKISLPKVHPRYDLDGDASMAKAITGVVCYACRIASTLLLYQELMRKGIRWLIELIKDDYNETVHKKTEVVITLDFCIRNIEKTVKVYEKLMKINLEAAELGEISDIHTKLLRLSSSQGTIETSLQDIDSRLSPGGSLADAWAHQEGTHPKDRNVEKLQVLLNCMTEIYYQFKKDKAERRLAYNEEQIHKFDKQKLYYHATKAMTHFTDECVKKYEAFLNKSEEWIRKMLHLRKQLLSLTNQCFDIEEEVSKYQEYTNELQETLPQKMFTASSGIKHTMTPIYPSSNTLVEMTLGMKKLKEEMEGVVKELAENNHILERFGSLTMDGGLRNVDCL
- Protocol description: TBK1 low ATP kinase assay (in vitro assay 1)
- Type: biochemical
- Assay context: in vitro assay 1, read-out: TBK1 low ATP kinase assay IC50
Measured parameter: IC50 (nM)

CC(c1ccnc(Nc2nc3ccc(-c4cc(N5CCCC5)ncn4)cc3[nH]2)c1)N1CCN(C(=O)CC(F)(F)F)CC1 (single isomer, unassigned)	0.49
Cc1ncnc(-c2ccc3nc(Nc4cc(CN5CCN(C(=O)C6CC6)CC5)ccn4)[nH]c3c2)c1C	951

I. CC(c1ccnc(Nc2nc3ccc(-c4cnn(CC5CC5)c4)c(F)c3[nH]2)c1)N1CCN(C(=O)OC(C)(C)C)CC1 (single isomer, unassigned)
II. CC(C)(C)OC(=O)N1CCN(Cc2ccnc(Nc3nc4ccc(-c5ncnc6c5COC6)cc4[nH]3)c2)CC1
# returns the entry with the larger IC50; inputs I and II Please respond with the label that marks your chosen entry.
II

A. Cn1ccc(-c2ccc3nc(Nc4cc(CN5CCN(C(=O)CC6CC6)CC5)ccn4)[nH]c3c2)n1
B. CN(CC(F)(F)F)c1cc(-c2ccc3nc(Nc4cc(CN5CCN(C(=O)CC(F)(F)F)CC5)ccn4)[nH]c3c2)ncn1
C. Cc1noc(-c2ccc3nc(Nc4cc(CN5CCN(C(=O)c6ccccc6)CC5)ccn4)[nH]c3c2)n1
D. COc1c(-c2ccc3nc(Nc4cc(C(C)N5CCN(C(=O)C6CC6)CC5)ccn4)[nH]c3c2)ncnc1N(C)C (single isomer, unassigned)
Order the records so the highest IC50 appears first and the lowest last. // format: requested-order list of labels
A, C, B, D
(A: 1270 nM, C: 180 nM, B: 9.8 nM, D: 5.9 nM)

a. Cc1cc(-c2ccc3nc(Nc4cc(CN5CCN(C(=O)C6CC6)CC5)ccn4)[nH]c3c2)ncn1
b. N#Cc1cnccc1-c1ccc2nc(Nc3cc(CN4CCN(C(=O)CC(F)(F)F)CC4)ccn3)[nH]c2c1
c. COc1c(-c2ccc3nc(Nc4cc(C(C)N5CCN(C(=O)OC(C)(C)C)CC5)ccn4)[nH]c3c2)ncnc1N1CCCC1 (single isomer, unassigned)
d. COc1cnc(C)cc1-c1ccc2nc(Nc3cc(CN4CCN(C(=O)C5CC5)CC4)ccn3)[nH]c2c1
e. CC(c1ccnc(Nc2nc3ccc(-c4cc(OCC(F)(F)C(F)(F)F)ncn4)cc3[nH]2)c1)N1CCN(C(=O)[C@@H]2CC2(F)F)CC1 (single isomer, unassigned)
Please give the order of these compounds when sorted by IC50, largest value leading. Give the order by naming the labels one after another as requested.
d, b, e, a, c
(d: 224 nM, b: 140 nM, e: 34.2 nM, a: 12.3 nM, c: 8.2 nM)
